Listed here: items and their measured EC50.
# System: HBV DNA in HepG2.2.15 cells
# experimental protocol: HBV in vitro dot-blot hybridization test
# Type: cell-based, Hepatitis B virus
# run parameters: Hepatitis B virus, HepG2.2.15, dot-blot hybridization assay, read-out: Concentration for 50% inhibition of HBV (EC50)value
# From the text: • 1. Purpose of the test: • The content of HBV DNA in HepG2.2.15 cells was detected by dot-blot hybridization test to evaluate an inhibitory action of the compound on HBV with an EC50 value as an indicator. • 2. […]

# count of solved cases: 6
CCOC(=O)C1=C2CCCN2C(c2nccs2)=NC1c1ccc(F)cc1Cl (racemic) = 0.1 to 0.5 µM
CCOC(=O)C1=C2C[C@H](CN3CCOCC3)CN2C(c2nccs2)=N[C@H]1c1ccc(F)cc1Br = 0.1 to 0.5 µM
CCOC(=O)C1=C2CN(C(=O)NC)CCN2C(c2nccs2)=N[C@H]1c1ccc(F)cc1Br = 0.5 to 1 µM
CCOC(=O)C1=C2C[C@@H](NS(=O)(=O)C(C)C)CN2C(c2nccs2)=N[C@H]1c1ccc(F)cc1Br = < 0.1 µM
CCOC(=O)C1=C2C[C@H](NS(C)(=O)=O)CN2C(c2nccs2)=N[C@H]1c1ccc(Cl)cc1F = 0.1 to 0.5 µM
CCOC(=O)C1=C2C[C@H](NS(C)(=O)=O)CN2C(c2nccs2)=N[C@H]1c1ccc(F)cc1 = 0.5 to 1 µM

In: Quick check: EC50 on HBV DNA in HepG2.2.15 cells, item CCOC(=O)C1=C2CCCN2C(c2nccs2)=NC1c1ccc(F)c(F)c1 (racemic) ?
Out: 0.1 to 0.5 µM

---

Overview of reported pEC50 across a group of compounds:
# Test system: HBV DNA in HepG2.2.15 cells
# experimental protocol: HBV in vitro dot-blot hybridization test
# Type: cell-based, Hepatitis B virus
# run parameters: Hepatitis B virus, HepG2.2.15, dot-blot hybridization assay, read-out: Concentration for 50% inhibition of HBV (EC50)value
pEC50: −log10 of the molar value.

Study these solved cases before continuing.
CCOC(=O)C1=C2C[C@H](NS(C)(=O)=O)CN2C(c2nccs2)=N[C@H]1c1ccc(Cl)cc1Cl = > 7.00
CCOC(=O)C1=C2CCCCN2C(c2nccs2)=NC1c1ccc(F)cc1Cl (racemic) = 5.30 to 6.00

In: Sample CCOC(=O)C1=C2C[C@H](NS(=O)(=O)C(C)C)CN2C(c2nccs2)=N[C@H]1c1ccc(F)cc1Br — what was its pEC50?
Out: > 7.00

In: Would you kindly share the measured pEC50 for CCOC(=O)C1=C2CN(C(=O)OCC)CCN2C(c2nccs2)=NC1c1ccc(F)cc1Br (stereo not shown) ?
Out: 6.30 to 7.00

---

Parameter EC50: see the listing below.
# Tested on: HBV DNA in HepG2.2.15 cells
# experimental protocol: HBV in vitro dot-blot hybridization test
# Format: cell-based, Hepatitis B virus
# run parameters: Hepatitis B virus, HepG2.2.15, dot-blot hybridization assay, read-out: Concentration for 50% inhibition of HBV (EC50)value

In the examples that follow, each entry is paired with its recorded EC50.
CCOC(=O)C1=C2C[C@H](N(C)S(C)(=O)=O)CN2C(c2nccs2)=N[C@H]1c1ccc(F)cc1Cl [Example 157] = < 100 nM
CCOC(=O)C1=C2C[C@H](N[S+]([O-])C(C)(C)C)CN2C(c2nccs2)=N[C@H]1c1ccc(F)cc1Cl (stereo partly shown) [Example 140] = 500 to 1000 nM
CCOC(=O)C1=C2CN(CC(=O)OC)CCN2C(c2nccs2)=N[C@H]1c1ccc(F)cc1Br [Example 98] = 1000 to 5000 nM
CCOC(=O)C1=C2CCCC(=O)N2C(c2nccs2)=N[C@H]1c1ccc(F)cc1Br (racemic) [Example 108] = 1000 to 5000 nM
CCOC(=O)C1=C2CC(NC(=O)NC)CN2C(c2nccs2)=N[C@H]1c1ccc(F)cc1Br (stereo partly shown) [Example 52] = 500 to 1000 nM

In: Request the reported EC50 associated with CCOC(=O)C1=C2C[C@@H](N(C)S(C)(=O)=O)CN2C(c2nccs2)=N[C@H]1c1ccc(F)cc1Br [Example 127]
Out: < 100 nM

In: Value lookup for EC50; key = CCOC(=O)C1=C2C[C@H](NS(C)(=O)=O)CN2C(c2nccs2)=N[C@H]1c1ccc(F)cc1Cl [Example 125]
Out: < 100 nM
